Assay: amyloid nucleation score (Sup35N fusion, yeast selection) (log enrichment); library NNK1; higher = more nucleation; inactive = no reads after selection;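 further: zero at mode of non-aggregating sequences after 7 days selection at 30°C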
readout_type: amyloid nucleation score
Respond using a number only.

Field: example entries. Status: answers known.
INSERT INTO results (substance, readout_type, test_result) VALUES
  ('IWVHHRSVTKSWLKMVAWNH', 'amyloid nucleation score', -0.514),
  ('VCGEYEITVKIISVSRSNKC', 'amyloid nucleation score', 1.45),
  ('AWDVAS', 'amyloid nucleation score', 0.967),
  ('AVASMWPRGLALSRLVSLNA', 'amyloid nucleation score', 0.05);

## Input Endpoint output: amyloid nucleation score of LMTNKKNVMMRRIHTGVASN . Value?
## Output 0.368

## Input Param item: GTLDDTGVTDDNFI
## Output 1.19

## Input Param item: VNNFIDCSSFCVYYLFKPGR
## Output 7.67

## Input Param item: SIVNVDVALSHLCSYQRSRM
## Output 4.11

* * *

Assay: amyloid nucleation score (Sup35N fusion, yeast selection) (log enrichment); library NNK2; higher = more nucleation; inactive = no reads after selection
Parameter threshold = -0.5. Response is Satisfied when amyloid nucleation score meets or exceeds it, else Not satisfied.

Consider the following illustrative entries.
INSERT INTO measurements (substance, group) VALUES
  ('NCRFFIADVSLYPTWFIFYF', 'Satisfied'),
  ('SRRVLYMVVPPLVF', 'Not satisfied');

## Input Given the entry DVKWPYRLDFVKLYYIYKEG , answer whether its amyloid nucleation score meets or surpasses -0.5.
## Output Not satisfied

## Input Param item: RYIGGSLFFRYNIVGKRQGV
## Output Satisfied

## Input Param item: TCNSGRYSRAACAWWN
## Output Satisfied

## Input Param item: ERGGIYWHVGRFSPDSEVTF
## Output Satisfied

## Input Param item: SFGRAENNSSARDMYV
## Output Not satisfied

* * *

Experiment: amyloid nucleation score (Sup35N fusion, yeast selection) (log enrichment); library NNK3; higher = more nucleation; inactive = no reads after selection
readout_type: amyloid nucleation score

Field: example entries. Status: answers known.
INSERT INTO assay_data (sequence_record, test_result) VALUES
  ('ALALMFVEGCVIYMGIGC', 1.93),
  ('VGGPNCIQAFS', 'inactive'),
  ('FISRSGAVGRRS', 'inactive'),
  ('LESFWFMTGFF', 'inactive'),
  ('LYNVYGSRA', 'inactive'),
  ('ACLLLSDLNY', 'inactive'),
  ('SCECSSNMGEAFRKLVGTSA', 'inactive'),
  ('KFKFVLILSEDAKAT', 1.23);

## Input Endpoint output: amyloid nucleation score of RNSVFLCKGIQVYLVLVIVV . Value?
## Output inactive

## Input Param item: LIRRSWSYCVLVSCTDGSHS
## Output inactive

## Input Param item: NATSQLVVGAVQ
## Output inactive

## Input Param item: VTCETSGADVVSTR
## Output inactive

## Input Param item: HNDSYRMWGRGPPIVLT
## Output inactive

## Input Param item: SIFFIKTYESFDSSLFKSSS
## Output inactive

## Input Param item: QGYLRKYPVTGICVIYECDG
## Output inactive

## Input Param item: LLTVSLPMDGST
## Output inactive

## Input Param item: IENQSRCLLTNVATVN
## Output inactive

## Input Param item: VVSSRLDAALDCWVREDCGV
## Output inactive

## Input Param item: NKVLFYVTYLFFIRNFLV
## Output inactive

## Input Param item: FRWNNCGSMVRISTPSYSFL
## Output inactive

## Input Param item: LRDFRKVSPAKVIDNRFQTD
## Output 0.827

## Input Param item: WCRCSFVVLHSVVVCSFGTR
## Output -0.074

Taken from the supplement of paper PMC12042874.
